FYI, the data here is from ChEMBL document CHEMBL1126061.

Below is a list of entries, each paired with its recorded IC50 value.
- system: Integrin alpha-IIb/beta-3 (Homo sapiens, UniProt P05106+P08514)
- Sequence (P05106 27-788 limits assumed): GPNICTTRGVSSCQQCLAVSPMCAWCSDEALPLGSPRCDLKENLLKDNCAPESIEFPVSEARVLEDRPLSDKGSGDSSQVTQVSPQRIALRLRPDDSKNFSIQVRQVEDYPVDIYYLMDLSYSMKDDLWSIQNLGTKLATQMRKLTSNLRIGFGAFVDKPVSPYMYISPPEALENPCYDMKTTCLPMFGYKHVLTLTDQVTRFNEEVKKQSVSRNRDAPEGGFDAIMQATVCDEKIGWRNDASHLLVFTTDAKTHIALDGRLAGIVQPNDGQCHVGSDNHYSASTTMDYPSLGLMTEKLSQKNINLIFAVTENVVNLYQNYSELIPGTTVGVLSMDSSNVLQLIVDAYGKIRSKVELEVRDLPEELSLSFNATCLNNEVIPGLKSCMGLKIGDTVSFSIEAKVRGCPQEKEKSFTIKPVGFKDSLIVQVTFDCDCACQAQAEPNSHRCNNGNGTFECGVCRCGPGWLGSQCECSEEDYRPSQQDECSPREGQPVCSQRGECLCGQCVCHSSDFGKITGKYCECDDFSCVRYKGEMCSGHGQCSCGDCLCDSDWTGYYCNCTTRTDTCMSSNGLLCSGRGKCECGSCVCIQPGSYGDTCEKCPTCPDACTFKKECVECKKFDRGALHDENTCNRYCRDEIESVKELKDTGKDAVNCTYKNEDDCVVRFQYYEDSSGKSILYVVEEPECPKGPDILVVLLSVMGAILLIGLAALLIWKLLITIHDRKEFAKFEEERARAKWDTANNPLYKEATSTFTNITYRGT
- Sequence (P08514 32-887 limits assumed): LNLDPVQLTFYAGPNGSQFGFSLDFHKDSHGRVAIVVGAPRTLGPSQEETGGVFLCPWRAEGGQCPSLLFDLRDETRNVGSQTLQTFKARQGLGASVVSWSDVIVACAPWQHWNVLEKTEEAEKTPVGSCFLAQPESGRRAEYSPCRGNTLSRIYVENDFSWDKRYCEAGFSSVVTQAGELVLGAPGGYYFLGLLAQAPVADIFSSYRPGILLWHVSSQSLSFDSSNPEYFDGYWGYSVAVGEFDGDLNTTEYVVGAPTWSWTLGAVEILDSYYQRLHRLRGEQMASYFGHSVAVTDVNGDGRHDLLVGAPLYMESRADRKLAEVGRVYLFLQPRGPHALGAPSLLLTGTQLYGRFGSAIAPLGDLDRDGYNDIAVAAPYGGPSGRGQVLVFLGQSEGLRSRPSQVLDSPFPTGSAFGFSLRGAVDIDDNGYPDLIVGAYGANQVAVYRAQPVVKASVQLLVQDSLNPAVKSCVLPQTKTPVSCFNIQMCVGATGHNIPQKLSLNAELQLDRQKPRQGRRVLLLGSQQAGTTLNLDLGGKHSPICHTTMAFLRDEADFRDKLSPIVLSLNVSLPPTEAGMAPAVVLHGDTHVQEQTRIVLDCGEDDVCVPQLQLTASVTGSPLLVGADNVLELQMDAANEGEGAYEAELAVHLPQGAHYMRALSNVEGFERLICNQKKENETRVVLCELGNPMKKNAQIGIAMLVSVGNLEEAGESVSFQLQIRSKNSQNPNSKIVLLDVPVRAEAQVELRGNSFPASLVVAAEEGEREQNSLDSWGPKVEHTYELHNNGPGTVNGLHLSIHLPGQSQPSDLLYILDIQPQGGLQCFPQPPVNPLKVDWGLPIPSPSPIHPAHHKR
- Sequence (P08514 891-1039 limits assumed): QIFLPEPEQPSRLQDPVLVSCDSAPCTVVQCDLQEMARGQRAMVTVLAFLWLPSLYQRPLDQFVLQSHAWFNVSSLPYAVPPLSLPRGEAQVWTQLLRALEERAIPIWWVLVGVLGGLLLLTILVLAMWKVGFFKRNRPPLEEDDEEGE
- assay_text: The compound was tested for the inhibition of fibrinogen receptor
- Type: protein-complex assay
*1 amine or outer side, *2 acyl side, *3 side chain or, on linkers, in order; H or OH if unused. Where a SMILES comes first, the peptide text is derived from it. Bridges are numbered along the chain shown (N, C = ends). [ ]: non-standard residue; d: D form. X2 = C[C@H](O)[C@H](C(=O)[*:2])N(c1cccc(CC[*:3])c1)[*:1]
Give the value, in units of nM, as a plain number.

Some entries whose results are on file:
{"columns": ["compound", "system", "IC50 (nM)"],
 "data": [
  ["CC(C)[C@H](NC(=O)[C@H](CC(=O)O)NC(=O)CNC(=O)[C@H](CCCN=C(N)N)NC(=O)CN)C(=O)O (H-GRGDV-OH)", "Integrin alpha-IIb/beta-3 (Homo sapiens, UniProt P05106+P08514)", 30],
  ["C[C@H](O)[C@H]1Nc2cccc(c2)CCSC[C@@H](C(=O)O)NC(=O)[C@H](CC(=O)O)NC(=O)CNC(=O)[C@H](CCCN=C(N)N)NC1=O (H-[X2]RGDC-OH; thioether 1-5)", "Integrin alpha-IIb/beta-3 (Homo sapiens, UniProt P05106+P08514)", 7],
  ["C[C@@H](O)[C@@H]1NC(=O)C[S+]([O-])C[C@@H](C(=O)O)NC(=O)[C@H](CC(=O)O)NC(=O)CNC(=O)[C@H](CCCN=C(N)N)NC1=O (stereo in doubt; 71A)", "Integrin alpha-IIb/beta-3 (Homo sapiens, UniProt P05106+P08514)", 1.8]
]}

The compound identified as N=C(N)NCCC[C@@H]1NC(=O)CNC(=O)CSC[C@@H](C(=O)O)NC(=O)[C@H](CC(=O)O)NC(=O)CNC1=O ({CH2CO}-GRGDC-OH; thioether N-5) registered its IC50 at 4.2

The compound identified as N=C(N)NCCC[C@@H]1NC(=O)[C@@H](Cc2ccccc2)NC(=O)C[S+]([O-])C[C@@H](C(=O)O)NC(=O)[C@H](CC(=O)O)NC(=O)CNC1=O (stereo partly specified) registered its IC50 at 5.6

The compound identified as "CC(C)(C)C[C@H]1NC(=O)CSC[C@@H](C(=O)O)NC(=O)[C@H](CC(=O)O)NC(=O)CNC(=O)[C@H](CCCN=C(N)N)NC1=O" registered its IC50 at 22
